Recorded measurements of pKa, one per entry
experiment-summary: physchem
Description: Ionization constant (pKa)

Req: Please look up its pKa: "O=S(=O)(CCCOCCc1cc2ccccc2o1)CCNCCc1ccc(O)c2nc(O)sc12"
Resp: < 8

Req: Please look up its pKa: [O-][S+](CCCNCCc1ccc(O)c2nc(O)sc12)CCOCCc1ccccc1 (stereo not given)
Resp: > 8

Req: Please look up its pKa: "O=S(=O)(CCCOCCc1ccccc1)NCCNCCc1ccc(O)c2nc(O)sc12"
Resp: > 8

Req: Please look up its pKa: "O=S(=O)(CCCNCCc1ccc(O)c2nc(O)sc12)NCCOCCSc1ccccc1"
Resp: > 8

Now take the following molecule into account.
Req: Please look up its pKa: "Cc1ccc(CCOCCCS(=O)(=O)CCNCCc2ccc(O)c3nc(O)sc23)nc1"
Resp: < 8

###

assayed-system: Beta-2 adrenergic receptor (Cavia porcellus)
run-conditions: Trachea
Description: Beta-2-adrenoceptor potency was determined in rings of guinea-pig isolated trachea
observation-type: p[A]50

Req: Please look up its p[A]50: "O=S(=O)(CCCOCCc1nccs1)CCNCCc1ccc(O)c2nc(O)sc12"
Resp: 7.72

Req: Please look up its p[A]50: "Oc1nc2c(O)ccc(CCNCCCSCCOCCc3ccccn3)c2s1"
Resp: 7.32

Req: Please look up its p[A]50: "O=S(=O)(CCCOCCc1ccc(O)cc1)CCNCCc1ccc(O)c2nc(O)sc12"
Resp: 8.65

Req: Please look up its p[A]50: "Oc1nc2c(O)ccc(CCNCCCSCCCOCCc3ccccc3)c2s1"
Resp: 7.32

Req: Please look up its p[A]50: "Oc1nc2cccc(CCNCCCCCCNCCc3ccc(O)c4nc(O)sc34)c2s1"
Resp: 7.86

Req: Please look up its p[A]50: "O=S(=O)(CCCNCCc1ccc(O)c2nc(O)sc12)CCOCCc1ccccc1"
Resp: 7.93

###

Recorded measurements of pKa, one per entry
experiment-summary: physchem

Req: Please look up its pKa: "NC(=O)Nc1ccc(CCOCCCCCCNCCc2ccc(O)c3nc(O)sc23)cc1"
Resp: > 8

Req: Please look up its pKa: "O=S(=O)(CCCNCCc1ccc(O)c2nc(O)sc12)CCNCCOc1ccccc1"
Resp: > 8

Req: Please look up its pKa: "Cc1ccccc1CCOCCCS(=O)(=O)CCNCCc1ccc(O)c2nc(O)sc12"
Resp: < 8

More entries:
Req: Please look up its pKa: "O=S(=O)(CCCNCCc1ccc(O)c2nc(O)sc12)CCNCCc1ccccc1"
Resp: > 8

Req: Please look up its pKa: O=c1[nH]c2c(O)ccc(CCNCCS(=O)(=O)CCCOCCc3ccccc3)c2s1 [SIBENADET]
Resp: < 8

Req: Please look up its pKa: "Cc1cc(C)cc(CCOCCS(=O)(=O)NCCNCCc2ccc(O)c3nc(O)sc23)c1"
Resp: > 8

Req: Please look up its pKa: "O=S(=O)(CCCNCCc1ccc(O)c2nc(O)sc12)CCOCCc1cccc2ccccc12"
Resp: > 8

Req: Please look up its pKa: "Oc1nc2c(O)ccc(CCNCCCCCCOCCc3ccccc3)c2s1"
Resp: > 8

Req: Please look up its pKa: "C[C@@H](COCCCS(=O)(=O)CCNCCc1ccc(O)c2nc(O)sc12)c1ccccc1"
Resp: < 8

Req: Please look up its pKa: "Oc1nc2cccc(CCNCCCCCCNCCc3ccc(O)c4nc(O)sc34)c2s1"
Resp: > 8

###

experiment-summary: physchem
run-conditions: octanol/water, pH 7.4, logD
observation-type: logD

Examples with answers:
Req: Please look up its logD: "Oc1nc2c(O)ccc(CCNCCCSCCOCCCc3ccccc3)c2s1"
Resp: 2.8

Req: Please look up its logD: "Cc1ccc(CCCOCCS(=O)(=O)CCCNCCc2ccc(O)c3nc(O)sc23)s1"
Resp: 2.41

Req: Please look up its logD: "O=S(=O)(CCCOCCc1nccc2ccccc12)CCNCCc1ccc(O)c2nc(O)sc12"
Resp: 2.35

Req: Please look up its logD: "CN(CCNCCc1ccc(O)c2[nH]c(=O)sc12)C(=O)CCOCCc1ccccc1"
Resp: 1.52

Req: Please look up its logD: "Oc1nc2c(O)ccc(CCNCCCCCCOCCc3ccccc3)c2s1"
Resp: 2.73

P = O=S(=O)(CCCNCCc1ccc(O)c2nc(O)sc12)NCCOCCc1cccc(C(F)(F)F)c1
Q = O=S(=O)(CCOCc1cccc2ccccc12)NCCCNCCc1ccc(O)c2nc(O)sc12
Req: # returns the entry with the larger logD; inputs P and Q Let me know the label of the one you choose.
Resp: P

###

What follows is a collection of Beta2 duration values obtained with Beta-2 adrenergic receptor (Cavia porcellus).

Examples with answers:
Req: Please look up its Beta2 duration: "Oc1ccc(CCOCCCCCCNCCc2ccc(O)c3nc(O)sc23)cc1"
Resp: > 180 min

Req: Please look up its Beta2 duration: "O=S(=O)(CCCNCCc1ccc(O)c2nc(O)sc12)CCOCCc1cccc2ccccc12"
Resp: > 180 min

Req: Please look up its Beta2 duration: "O=[N+]([O-])c1ccc(CCOCCCS(=O)(=O)CCNCCc2ccc(O)c3nc(O)sc23)cc1"
Resp: 77 min

More entries:
Req: Please look up its Beta2 duration: "O=S(=O)(CCCOCCSc1ccccc1)CCNCCc1ccc(O)c2nc(O)sc12"
Resp: 120 min

Req: Please look up its Beta2 duration: "Nc1ccc(CCOCCCCCCNCCc2ccc(O)c3nc(O)sc23)cc1"
Resp: > 180 min

Req: Please look up its Beta2 duration: "CC(C)(CCCCOCCc1ccc(N)cc1)CNCCc1ccc(O)c2nc(O)sc12"
Resp: > 180 min

Req: Please look up its Beta2 duration: "NC(=O)c1ccc(CCOCCCS(=O)(=O)CCNCCc2ccc(O)c3nc(O)sc23)cc1"
Resp: 50 min

Req: Please look up its Beta2 duration: "Oc1nc2c(O)ccc(CCNCCCSCCCOCCc3ccccc3)c2s1"
Resp: > 180 min

###

What follows is a collection of Beta2 duration values obtained with Beta-2 adrenergic receptor (Cavia porcellus) (UniProt Q8K4Z4).
Sequence (Q8K4Z4 whole entry, looked up): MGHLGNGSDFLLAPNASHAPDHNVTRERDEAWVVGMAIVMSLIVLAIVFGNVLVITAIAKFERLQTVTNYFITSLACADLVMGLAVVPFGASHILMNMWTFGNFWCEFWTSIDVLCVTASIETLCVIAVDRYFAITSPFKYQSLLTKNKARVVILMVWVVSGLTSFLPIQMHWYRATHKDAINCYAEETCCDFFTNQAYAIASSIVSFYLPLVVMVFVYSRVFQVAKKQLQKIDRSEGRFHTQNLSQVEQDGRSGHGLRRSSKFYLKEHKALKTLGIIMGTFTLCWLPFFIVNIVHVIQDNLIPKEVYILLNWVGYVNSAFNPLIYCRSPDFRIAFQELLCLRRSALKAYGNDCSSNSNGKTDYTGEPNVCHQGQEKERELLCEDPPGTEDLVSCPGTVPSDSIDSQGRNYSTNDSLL

Examples with answers:
Req: Hi! What's the reported Beta2 duration for "O=S(=O)(CCCOCCc1ccc(NS(=O)(=O)c2ccccc2)cc1)CCNCCc1ccc(O)c2nc(O)sc12" on Beta-2 adrenergic receptor (Cavia porcellus) (UniProt Q8K4Z4)?
Resp: > 180 min

Req: Hi! What's the reported Beta2 duration for "Oc1nc2c(O)ccc(CCNCCCSCCOCCCc3ccccc3)c2s1" on Beta-2 adrenergic receptor (Cavia porcellus) (UniProt Q8K4Z4)?
Resp: > 180 min

Req: Hi! What's the reported Beta2 duration for "O=S(=O)(CCCOCCc1ccc(Br)cc1)CCNCCc1ccc(O)c2nc(O)sc12" on Beta-2 adrenergic receptor (Cavia porcellus) (UniProt Q8K4Z4)?
Resp: > 180 min

Req: Hi! What's the reported Beta2 duration for "Oc1nc2c(O)ccc(CCNCCSCCCOCCCc3ccccc3)c2s1" on Beta-2 adrenergic receptor (Cavia porcellus) (UniProt Q8K4Z4)?
Resp: > 180 min

More entries:
Req: Hi! What's the reported Beta2 duration for "Cc1cc(C)cc(CCOCCS(=O)(=O)NCCNCCc2ccc(O)c3nc(O)sc23)c1" on Beta-2 adrenergic receptor (Cavia porcellus) (UniProt Q8K4Z4)?
Resp: > 180 min

Req: Hi! What's the reported Beta2 duration for "Oc1nc2c(O)ccc(CCNCCOCCCOCCc3ccccc3)c2s1" on Beta-2 adrenergic receptor (Cavia porcellus) (UniProt Q8K4Z4)?
Resp: > 1080 min

###

assayed-system: Beta-2 adrenergic receptor (Cavia porcellus) (UniProt Q8K4Z4)
run-conditions: Trachea
observation-type: p[A]50

Req: Please look up its p[A]50: "O=S(=O)(CCCOCCc1ccccn1)CCNCCc1ccc(O)c2nc(O)sc12"
Resp: 7.49

Req: Please look up its p[A]50: "CC(C)(CCCCOCCc1ccc([N+](=O)[O-])cc1)CNCCc1ccc(O)c2nc(O)sc12"
Resp: 6.35

Req: Please look up its p[A]50: "Cc1cnc(CCOCCCS(=O)(=O)CCNCCc2ccc(O)c3nc(O)sc23)s1"
Resp: 7.61

Req: Please look up its p[A]50: "Oc1nc2c(O)ccc(CCNCCSCCCOCCc3ccccn3)c2s1"
Resp: 7.51

P = Oc1nc2c(O)ccc(CCNCCCSCCOCCc3cccc4ccccc34)c2s1
Q = Nc1ccc(CCOCCCCCCNCCc2ccc(O)c3nc(O)sc23)cc1
Req: Input pair: P , Q . Output: entry with lower p[A]50. Let me know the label of the one you choose.
Resp: P
(P: 5.8, Q: 9.4)

###

assayed-system: Beta-2 adrenergic receptor (Cavia porcellus)
run-conditions: Trachea
observation-type: p[A]50

Req: Please look up its p[A]50: "Oc1nc2c(O)ccc(CCNCCCCCCOCCc3nccs3)c2s1"
Resp: 7.78

Req: Please look up its p[A]50: "O=C(NCCCCCCNCCc1ccc(O)c2nc(O)sc12)Nc1ccccc1"
Resp: 7.01

Req: Please look up its p[A]50: "CN(CCNCCc1ccc(O)c2nc(O)sc12)C(=O)CCOCCc1ccccc1"
Resp: 8.29

Req: Please look up its p[A]50: "O=S(=O)(CCCOCCc1ccc(F)cc1)CCNCCc1ccc(O)c2nc(O)sc12"
Resp: 7.92

Req: Please look up its p[A]50: "Oc1nc2c(O)ccc(CCNCCCOCCOCCc3ccccc3)c2s1"
Resp: 8.82

Req: Please look up its p[A]50: "O=S(=O)(CCCNCCc1ccc(O)c2nc(O)sc12)CCOCCCc1ccccc1"
Resp: 8.69

Req: Please look up its p[A]50: "O=C(CCCCCNCCc1ccc(O)c2nc(O)sc12)NCCc1ccccc1"
Resp: 7.18

Req: Please look up its p[A]50: "Nc1ccccc1CCOCCS(=O)(=O)CCCNCCc1ccc(O)c2nc(O)sc12"
Resp: 7.46

Req: Please look up its p[A]50: [O-][S+](CCCNCCc1ccc(O)c2nc(O)sc12)CCOCCc1ccccc1 (stereo unspecified)
Resp: 8.47

Req: Please look up its p[A]50: "Oc1nc2c(O)ccc(CCNCCCCCCOCCc3ccccc3)c2s1"
Resp: 8.23

Req: Please look up its p[A]50: "Oc1nc2c(O)ccc(CCNCCSCCCOCCCc3ccccc3)c2s1"
Resp: 7.27

Req: Please look up its p[A]50: "O=C(CCCOCCc1ccccc1)NCCNCCc1ccc(O)c2nc(O)sc12"
Resp: 7.56

Req: Please look up its p[A]50: "O=S(=O)(CCCOCCc1ccc(NS(=O)(=O)c2ccccc2)cc1)CCNCCc1ccc(O)c2nc(O)sc12"
Resp: 7.7

Req: Please look up its p[A]50: "NC(=O)c1ccc(CCOCCCS(=O)(=O)CCNCCc2ccc(O)c3nc(O)sc23)cc1"
Resp: 7.54

Req: Please look up its p[A]50: "O=c1[nH]c2c(O)ccc(CCNCCCS(=O)(=O)CCCOCCc3ccccc3)c2s1"
Resp: 8.24

Req: Please look up its p[A]50: "CC(C)(CCCCOCCc1ccc(O)cc1)CNCCc1ccc(O)c2nc(O)sc12"
Resp: 9.03

Req: Please look up its p[A]50: "CC(C)(CCCCOCCc1ccccc1N)CNCCc1ccc(O)c2nc(O)sc12"
Resp: 7.58

Req: Please look up its p[A]50: "CC(C)(CCCCOCCc1ccc(N)cc1)CNCCc1ccc(O)c2nc(O)sc12"
Resp: 8.86

Req: Please look up its p[A]50: "Oc1nc2c(O)ccc(CCNCCNCCCOCCc3ccccc3)c2s1"
Resp: 7.01

Req: Please look up its p[A]50: "Oc1nc2c(O)ccc(CCNCCCSCCOCCOc3ccccc3)c2s1"
Resp: 7.06

Req: Please look up its p[A]50: "O=S(=O)(CCCNCCc1ccc(O)c2nc(O)sc12)CCOCCc1cccc2ccccc12"
Resp: 7.73

Req: Please look up its p[A]50: "O=[N+]([O-])c1ccc(CCOCCCSCCNCCc2ccc(O)c3nc(O)sc23)cc1"
Resp: 6.78

Req: Please look up its p[A]50: "O=S(=O)(CCCOCCCCc1ccccc1)CCNCCc1ccc(O)c2nc(O)sc12"
Resp: 7.76

Req: Please look up its p[A]50: "Oc1nc2c(O)ccc(CCNCCCOCCSCCc3ccccc3)c2s1"
Resp: 7.03

Req: Please look up its p[A]50: "O=S(=O)(CCCNCCc1ccc(O)c2nc(O)sc12)CCNCCc1ccccc1"
Resp: 7.88

Req: Please look up its p[A]50: "O=S(=O)(CCCCCCNCCc1ccc(O)c2nc(O)sc12)CCc1ccccc1"
Resp: 7

Req: Please look up its p[A]50: "Oc1nc2c(O)ccc(CCNCCSCCCOCCc3ccccc3)c2s1"
Resp: 8.36

Req: Please look up its p[A]50: "CC(C)(CCCCCOCCc1ccccc1)NCCc1ccc(O)c2nc(O)sc12"
Resp: 8.42

Req: Please look up its p[A]50: "O=c1[nH]c2c(O)ccc(CCNCCCSCCOCCc3ccccc3)c2s1"
Resp: 8.02

Req: Please look up its p[A]50: "Oc1nc2c(O)ccc(CCNCCOCCCOCCc3ccccc3)c2s1"
Resp: 7.16

Req: Please look up its p[A]50: "Oc1nc2c(O)ccc(CCNCCC(F)(F)CCCOCCc3ccccc3)c2s1"
Resp: 7.77

Req: Please look up its p[A]50: "Oc1nc2c(O)ccc(CCNCCCSCCOCCCc3ccccc3)c2s1"
Resp: 7.86

Req: Please look up its p[A]50: "O=S(=O)(Nc1ccc(CCOCCCSCCNCCc2ccc(O)c3nc(O)sc23)cc1)c1ccccc1"
Resp: 7.57

Req: Please look up its p[A]50: "O=[N+]([O-])c1ccc(CCOCCCS(=O)(=O)CCNCCc2ccc(O)c3nc(O)sc23)cc1"
Resp: 6.73

Req: Please look up its p[A]50: "NC(=O)Nc1ccc(CCOCCCCCCNCCc2ccc(O)c3nc(O)sc23)cc1"
Resp: 9.2

Req: Please look up its p[A]50: "O=S(=O)(CCCNCCc1ccc(O)c2nc(O)sc12)NCCOCc1ccccc1"
Resp: 7.4
